As a worked illustration, we turn to GI50 data collected for LNCaP cells.
MEASUREMENT_LABEL: GI50 (µM)

O=S(=O)(NC1(c2ccc(Cl)nc2)CCNCC1)c1ccc(OC(F)(F)F)cc1 [Example 3]    69.9
CC(C)Oc1ccc(S(=O)(=O)N[C@H](c2ccc(Cl)cc2)C2CCNCC2)cn1 [Example 17]    26.4
CC(C)Oc1ccc(S(=O)(=O)NC(CN2CCNCC2)c2ccc(Cl)cc2)cn1 (stereo not shown) [Example 22]    51.1
O=S(=O)(NC1(c2ccc(F)c(F)c2)CCNC1)c1ccc(OC(F)(F)F)cc1 (stereo not shown) [Example 1]    25.7
